This collection of values is drawn from paper PMC10846240.

assay: In vivo pharmacokinetics of amphenmulin in chickens (IV, IM, PO); settings: yellow-feathered broilers, plasma, 20 mg/kg bw., IM, mean ± SD, n = 10
recorded_endpoint: Cmax (ng/mL)
Answer in ng/mL, number only, no unit symbol.

Q: Please look up its Cmax: C=C[C@]1(C)C[C@@H](OC(=O)CSc2ccccc2N)[C@]2(C)[C@H](C)CC[C@]3(CCC(=O)[C@H]32)[C@@H](C)[C@@H]1O
A: 1930

====

experiment: In vivo pharmacokinetics of amphenmulin in chickens (IV, IM, PO); settings: yellow-feathered broilers, plasma, 20 mg/kg bw., IM
recorded_endpoint: AUC(0-t) (ng·h/mL)
Numbers only; they are read as ng·h/mL.

Q: Need AUC(0-t), item C=C[C@]1(C)C[C@@H](OC(=O)CSc2ccccc2N)[C@]2(C)[C@H](C)CC[C@]3(CCC(=O)[C@H]32)[C@@H](C)[C@@H]1O [amphenmulin]
A: 9160

====

test: In vivo pharmacokinetics of amphenmulin in chickens (IV, IM, PO); conditions: yellow-feathered broilers, plasma, 20 mg/kg bw., IM
recorded_endpoint: MRT (h)
Report the figure in h without appending any unit label.

Q: Please look up its MRT: C=C[C@]1(C)C[C@@H](OC(=O)CSc2ccccc2N)[C@]2(C)[C@H](C)CC[C@]3(CCC(=O)[C@H]32)[C@@H](C)[C@@H]1O [amphenmulin]
A: 7.89

====

test: In vivo pharmacokinetics of amphenmulin in chickens (IV, IM, PO); conditions: yellow-feathered broilers, chicken, plasma, other: oral and intramuscular, 20 mg/kg bw., two extravascular routes (oral and intramuscular), read-out: time to peak levels after administration
recorded_endpoint: Tmax

Q: // lookup Tmax for C=C[C@]1(C)C[C@@H](OC(=O)CSc2ccccc2N)[C@]2(C)[C@H](C)CC[C@]3(CCC(=O)[C@H]32)[C@@H](C)[C@@H]1O
A: < 30 min

====

test: In vivo pharmacokinetics of amphenmulin in chickens (IV, IM, PO); conditions: yellow-feathered broilers, plasma, 20 mg/kg bw., PO
recorded_endpoint: AUC(0-t) (ng·h/mL)
Reply numerically in ng·h/mL, unit not repeated.

Q: Reported AUC(0-t), compound C=C[C@]1(C)C[C@@H](OC(=O)CSc2ccccc2N)[C@]2(C)[C@H](C)CC[C@]3(CCC(=O)[C@H]32)[C@@H](C)[C@@H]1O [amphenmulin] : ____
A: 1060

====

Test: In vivo pharmacokinetics of amphenmulin in chickens (IV, IM, PO)
Settings: yellow-feathered broilers, plasma, 20 mg/kg bw., IV
From the text: The M. gallisepticum standard strain S6 was obtained from the National Center for Veterinary Culture Collection (Beijing, China). Amphenmulin (98%) was synthesized by our laboratory according to the published methods ([10]). Acetonitrile and all other liquid chemicals used were purchased from Macklin Biochemical Technology Co., Ltd (Shanghai, China). […]
recorded_endpoint: AUC(0-inf)
Please answer using the number first and the unit second.

Q: Param item = C=C[C@]1(C)C[C@@H](OC(=O)CSc2ccccc2N)[C@]2(C)[C@H](C)CC[C@]3(CCC(=O)[C@H]32)[C@@H](C)[C@@H]1O ; retrieve measured AUC(0-inf).
A: 18900 ng·h/mL

====

assay: In vivo pharmacokinetics of amphenmulin in chickens (IV, IM, PO); settings: yellow-feathered broilers, plasma, 20 mg/kg bw., PO, mean ± SD, n = 10
recorded_endpoint: Cmax
Could you write the number and then its unit?

Q: Quick check: Cmax of C=C[C@]1(C)C[C@@H](OC(=O)CSc2ccccc2N)[C@]2(C)[C@H](C)CC[C@]3(CCC(=O)[C@H]32)[C@@H](C)[C@@H]1O ?
A: 730 ng/mL
